molecular target: human TLR7 (Homo sapiens); assay: TLR7 inhibition reporter assay (HEK-Blue cells, SEAP reporter, gardiquimod stimulation); details: HEK-Blue cells overexpressing human TLR7, gardiquimod 7.5 μM
Sequence (Q9NYK1 27-1049): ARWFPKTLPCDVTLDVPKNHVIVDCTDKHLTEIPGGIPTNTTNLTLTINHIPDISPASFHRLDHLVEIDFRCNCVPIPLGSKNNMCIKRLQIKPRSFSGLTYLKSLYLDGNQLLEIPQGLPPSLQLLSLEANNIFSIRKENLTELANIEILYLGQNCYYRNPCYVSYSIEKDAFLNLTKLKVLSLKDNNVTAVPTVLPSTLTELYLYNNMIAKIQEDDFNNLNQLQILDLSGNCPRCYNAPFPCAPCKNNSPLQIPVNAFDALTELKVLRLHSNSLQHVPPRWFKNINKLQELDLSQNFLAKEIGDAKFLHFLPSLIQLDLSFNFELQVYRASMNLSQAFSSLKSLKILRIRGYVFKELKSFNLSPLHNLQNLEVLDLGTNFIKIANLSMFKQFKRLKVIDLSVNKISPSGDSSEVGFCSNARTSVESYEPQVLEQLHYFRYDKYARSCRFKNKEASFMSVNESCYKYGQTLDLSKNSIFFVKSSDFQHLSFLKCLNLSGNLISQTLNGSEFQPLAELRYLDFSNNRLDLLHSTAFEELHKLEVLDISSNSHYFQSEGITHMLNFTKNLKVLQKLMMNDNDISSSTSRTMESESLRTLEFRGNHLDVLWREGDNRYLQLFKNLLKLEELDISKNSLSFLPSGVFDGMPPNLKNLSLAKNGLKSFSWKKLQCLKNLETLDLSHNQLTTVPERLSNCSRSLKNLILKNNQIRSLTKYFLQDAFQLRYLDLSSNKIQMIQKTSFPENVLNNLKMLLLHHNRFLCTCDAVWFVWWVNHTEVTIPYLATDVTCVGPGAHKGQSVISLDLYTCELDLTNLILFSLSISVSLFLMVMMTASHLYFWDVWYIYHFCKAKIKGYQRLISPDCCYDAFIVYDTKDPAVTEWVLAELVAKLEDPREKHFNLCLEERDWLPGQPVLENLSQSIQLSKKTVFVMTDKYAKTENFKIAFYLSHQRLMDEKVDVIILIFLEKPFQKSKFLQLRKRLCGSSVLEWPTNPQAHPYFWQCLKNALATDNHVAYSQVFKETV
Could you please mark 1.0 for values of IC50 below 600 nM and 0.0 for values at or above it?

Solved entries (count: 5):
| MOLECULE | LABEL CLASS |
| --- | --- |
| CCc1c(-c2ccc(OC)c(OC)c2)[nH]c2ccc(C3CCN(C4CCN(Cc5nccn5C)CC4)CC3)cc12 | 0.0 |
| CCc1c(-c2ccc(OC)c(OC)c2)[nH]c2ccc(C3CCN(C4CCN(C)CC4)CC3)cc12 | 0.0 |
| COc1ccc(-c2[nH]c3ccc(C4CCNCC4F)cc3c2C(C)C)cc1OC (racemic) [Example 319] | 1.0 |
| COc1ccc(-c2[nH]c3ccc(C4CCN(C(=O)CNC[C@@H](O)CO)CC4)cc3c2C)cc1OC | 0.0 |
| COc1ccc(-c2[nH]c3ccc(C4CCN(C(=O)CN5CCC[C@H](C(=O)NCCNC(C)=O)C5)CC4)cc3c2C(C)C)cc1OC | 1.0 |

Item COc1ccc(-c2[nH]c3ccc(C4CCN(C5CCCN(C(C)C)CC5)CC4)cc3c2C)cc1OC (centres unmarked) : IC50 beneath 600 nM, strictly?
1.0

Lab note: confirm whether the reported IC50 for this molecule is below 600 nM, equality not counting. molecule: COc1ccc(-c2[nH]c3ccc(C4CCN(C)CC4)cc3c2CC(F)(F)F)cc1OC
1.0

Please indicate whether the reported IC50 of CCc1c(-c2ccc(OC)c(OC)c2)[nH]c2ccc(C3CCN(C4CCN(CC)CC4)CC3)cc12 is strictly below 600 nM.
1.0

---

# key: entry, value: IC50
target: UniProt Q9NYK1; assay: TLR7 inhibition reporter assay (HEK-Blue cells, SEAP reporter, gardiquimod stimulation); settings: HEK-Blue cells overexpressing human TLR7, gardiquimod 7.5 μM
// return the numeric value with its unit appended

Examples from the recorded data:
| CPD SMILES | IC50 |
| --- | --- |
| CCCN1CCC(N2CCC(c3ccc4[nH]c(-c5ccc(OC)c(OC)c5)c(C)c4c3)CC2)CC1 | 0.321 µM |
| CCc1c(-c2ccc(OC)c(OC)c2)[nH]c2ccc(C3CCN(C(=O)CN4CCC(N5CCCCC5)CC4)CC3)cc12 | 0.219 µM |
| COc1ccc(-c2[nH]c3ccc(C4CCN(C(=O)CNCC(C)(C)CO)CC4)cc3c2C(C)C)cc1OC | 0.033 µM |

--- query ---
The molecule listed as CNCCN1CCC(c2ccc3c(c2)c(C)c(-c2ccc(OC)c(OC)c2)n3C)CC1 has a reported IC50 of 5.26 µM

---

Listed below: pIC50 values for each entry.
target: human TLR7 (Homo sapiens); assay: TLR7 inhibition reporter assay (HEK-Blue cells, SEAP reporter, gardiquimod stimulation); conditions: HEK-Blue cells overexpressing human TLR7, gardiquimod 7.5 μM
Scale for pIC50: -log10 of concentration given in mol/L; no unit attached.

response.value for COc1ccc(-c2[nH]c3ccc(C4CCN(C5CCN(Cc6nccs6)CC5)CC4)cc3c2C)cc1OC (field: pIC50) = 6.25

Note to self: pIC50 recorded for COc1ccc(-c2[nH]c3ccc(C4CCN(C(=O)CNC[C@H](O)CO)CC4)cc3c2C(C)C)cc1OC was 7.82

Measured pIC50 of CCc1c(-c2ccc(OC)c(OC)c2)[nH]c2ccc(C3CCN(C(=O)C4CCCNC4)CC3)cc12 (stereo not shown) : 6.72

The recorded pIC50 for COc1ccc(-c2[nH]c3ccc(C4CCN(C(=O)CN5CCC[C@H](C(=O)N(C)C(C)C)C5)CC4)cc3c2C(C)C)cc1OC is 7.36

The compound listed as CCNCC(=O)N1CCC(c2ccc3[nH]c(-c4ccc(OC)c(OC)c4)c(C)c3c2)CC1 has a reported pIC50 of 6.43

Reported pIC50 for CCc1c(-c2ccc(OC)c(OC)c2)[nH]c2ccc(C3CCN(C(C)=O)CC3)cc12 was 6.56
